Numbers sourced from ChEMBL document CHEMBL1147697.

- procedure_text: Half life in Beagle dog at 2 mg/kg, iv
- Format: ADME, organism-based, Canis lupus familiaris
- Parameters: dose 2 mg/kg, route intravenous
- study_conditions: in vivo
readout_kind: half-life (h)
Form entry: value (h) — number only.

## Input // lookup half-life for Cc1cc(COc2ccc(C(=O)NC3(CC(=O)NO)CCOCC3)cc2)c2ccccc2n1
## Output 4.2

====

- procedure_text: Cmax in Sprague-Dawley rat at 6.7 mg/kg, po
- Format: ADME, organism-based
- Set-up: dose 6.7 mg/kg, route oral
- study_conditions: in vivo
readout_kind: Cmax (µM)
Write the answer as a number in µM, unit excluded.

## Input Could you tell me which Cmax is on file for Cc1cc(COc2ccc(C(=O)NC3(CC(=O)NO)CCNCC3)cc2)c2ccccc2n1 ?
## Output 2.48
